Molecular target: delta opioid receptor (Rattus norvegicus)
Construct: from tissue; host or cells: forebrain of male Wistar rats
Sequence (P33533 whole entry): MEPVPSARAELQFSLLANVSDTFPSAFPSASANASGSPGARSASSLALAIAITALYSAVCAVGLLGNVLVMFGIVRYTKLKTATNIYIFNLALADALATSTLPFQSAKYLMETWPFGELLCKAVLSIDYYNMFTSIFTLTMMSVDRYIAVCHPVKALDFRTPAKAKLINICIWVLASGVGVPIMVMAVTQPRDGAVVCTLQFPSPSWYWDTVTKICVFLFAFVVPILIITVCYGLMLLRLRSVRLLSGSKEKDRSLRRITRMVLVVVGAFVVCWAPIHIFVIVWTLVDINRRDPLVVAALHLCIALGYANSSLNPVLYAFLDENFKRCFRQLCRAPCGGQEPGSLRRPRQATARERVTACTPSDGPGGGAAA
Test: Rat Brain Delta Opioid Receptor Binding Assay ([3H]DPDPE)
Conditions: rat forebrain membranes, margin of error 10-20%, read-out: r Ki δ
Can you tell me pKi for the items I'm about to list?
Reminder that pKi is minus the log10 of a molar concentration.

Which value of pKi has been reported for COc1ccc(CN(C(=O)[C@@H](N)Cc2c(C)cc(O)cc2C)[C@@H](C)c2nc(-c3ccccc3)c[nH]2)cc1C(=O)O [Cpd 260] in the records? 9.89

Which value of pKi has been reported for Cc1cc(C(N)=O)cc(C)c1C[C@H](N)C(=O)N(Cc1ccccc1)[C@@H](C)c1nc(-c2ccccc2)c[nH]1 [Cpd 114] in the records? 7.92

Which value of pKi has been reported for Cc1cc(O)cc(C)c1C[C@H](N)C(=O)N(Cc1ccc(C(=O)O)o1)[C@@H](C)c1nc(-c2ccccc2)c[nH]1 [Cpd 287] in the records? 9.85

Which value of pKi has been reported for Cc1cc(O)cc(C)c1C[C@H](N)C(=O)N[C@@H](Cc1cccc(C#N)c1)c1nc(-c2ccccc2)c[nH]1 [Cpd 173] in the records? 5.30

Which value of pKi has been reported for Cc1cc(O)cc(C)c1C[C@H](N)C(=O)N[C@@H](C)c1nc(-c2ccccc2)c[nH]1 [Cpd 209] in the records? 6.15

Which value of pKi has been reported for Cc1cc(O)cc(C)c1C[C@H](N)C(=O)N(Cc1ccnc2ccccc12)[C@@H](C)c1nc(-c2ccccc2)c[nH]1 [Cpd 246] in the records? 10.46

Which value of pKi has been reported for COc1ccc(CN(C(=O)[C@@H](N)Cc2c(C)cc(C(N)=O)cc2C)[C@@H](C)c2nc(-c3ccccc3)c[nH]2)cc1C(N)=O [Cpd 295] in the records? 8.40

Which value of pKi has been reported for CCOc1cccc(CN(C(=O)[C@@H](N)Cc2c(C)cc(O)cc2C)[C@@H](C)c2nc(-c3ccccc3)c[nH]2)c1 [Cpd 251] in the records? 9.59

Which value of pKi has been reported for Cc1cc(C(N)=O)cc(C)c1C[C@H](N)C(=O)N(Cc1ccccc1C(N)=O)[C@@H](C)c1nc(-c2ccccc2)c[nH]1 [Cpd 1] in the records? 7.88

Which value of pKi has been reported for COC(=O)c1cc(CN(C(=O)[C@@H](N)Cc2ccc(C(N)=O)cc2)[C@H](C)c2nc(-c3ccccc3)c[nH]2)ccc1OC [Cpd 281] in the records? 6.14

Which value of pKi has been reported for COc1ccc(CN(Cc2nc(-c3ccccc3)c[nH]2)C(=O)[C@@H](N)Cc2c(C)cc(C(N)=O)cc2C)cc1C(=O)O [Cpd 6] in the records? 8.77

Which value of pKi has been reported for COc1ccc(CN(C(=O)[C@@H](N)Cc2c(C)cc(C(N)=O)cc2C)[C@@H](C)c2nc(-c3ccccc3)c[nH]2)cc1OC [Cpd 75] in the records? 9.18

Which value of pKi has been reported for Cc1cc(O)cc(C)c1C[C@H](N)C(=O)N(Cc1ccc(OC(F)(F)F)cc1)[C@@H](C)c1nc(-c2ccccc2)c[nH]1 [Cpd 248] in the records? 9.36

Which value of pKi has been reported for Cc1cc(O)cc(C)c1C[C@H](N)C(=O)N(C)[C@H](C)c1nc(-c2ccccc2)c[nH]1 [Cpd 206] in the records? 8.24

----------
Biological target: human mu opioid receptor (Homo sapiens, UniProt P35372)
Construct: purchased Perkin Elmer RBHOMM400UA; host or cells: Chinese Hamster Ovary cells (recombinant expression)
Sequence (P35372 whole entry): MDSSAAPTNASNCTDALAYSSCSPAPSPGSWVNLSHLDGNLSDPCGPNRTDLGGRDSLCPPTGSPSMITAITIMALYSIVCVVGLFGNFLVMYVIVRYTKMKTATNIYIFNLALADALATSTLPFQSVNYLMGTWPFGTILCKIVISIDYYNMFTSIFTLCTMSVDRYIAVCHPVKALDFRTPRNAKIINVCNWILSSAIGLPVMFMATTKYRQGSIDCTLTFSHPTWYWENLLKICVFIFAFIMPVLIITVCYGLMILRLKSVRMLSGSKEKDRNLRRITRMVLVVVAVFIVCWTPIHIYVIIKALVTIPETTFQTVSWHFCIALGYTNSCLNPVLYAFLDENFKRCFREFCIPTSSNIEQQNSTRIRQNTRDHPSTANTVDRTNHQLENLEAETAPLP
Assay: Human Mu Opioid Receptor Binding Assay (CHO membranes, 3H-Damgo)
Conditions: read-out: hKi μ
measured quantity: Ki
Report the figure along with its unit, number first.

Which value of Ki has been reported for Cc1cc(O)cc(C)c1C[C@H](N)C(=O)N(Cc1nc(-c2cc(F)ccc2F)c(C)[nH]1)C(C)C [Cpd 61] in the records? 3 nM

Which value of Ki has been reported for Cc1cc(O)cc(C)c1C[C@H](N)C(=O)N(Cc1nc(-c2ccccc2)c[nH]1)C(C)C [Cpd 194] in the records? 0.13 nM

Which value of Ki has been reported for Cc1cc(O)cc(C)c1C[C@H](N)C(=O)N(Cc1nc(-c2cccc(-c3ccccc3)c2)c(C)[nH]1)C(C)C [Cpd 134] in the records? 121 nM

Which value of Ki has been reported for COc1ccc(CN(C(=O)[C@@H](N)Cc2c(C)cc(O)cc2C)[C@@H](C)c2nc(-c3ccccc3)c[nH]2)c(OC)c1 [Cpd 34] in the records? 19 nM

Which value of Ki has been reported for Cc1cc(C(N)=O)cc(C)c1C[C@H](N)C(=O)N(Cc1ccc(C(=O)O)cc1)[C@@H](C)c1nc(-c2ccccc2)c[nH]1 [Cpd 50] in the records? 1.4 nM

Which value of Ki has been reported for Cc1cc(O)cc(C)c1C[C@H](N)C(=O)N(Cc1nc(-c2ccc(F)cc2F)c(C)[nH]1)C(C)C [Cpd 71] in the records? 0.57 nM

Which value of Ki has been reported for Cc1cc(C(N)=O)cc(C)c1C[C@H](N)C(=O)N(C(C)C)[C@@H](C)c1nc(-c2ccccc2)c[nH]1 [Cpd 143] in the records? 1.6 nM

----------
Target: human mu opioid receptor (Homo sapiens)
Construct: purchased Perkin Elmer RBHOMM400UA; host or cells: Chinese Hamster Ovary cells (recombinant expression)
Assay: Human Mu Opioid Receptor Binding Assay (CHO membranes, 3H-Damgo)
Settings: read-out: hKi μ
pKi: −log10 of the molar value.
Would you mind labelling by pKi? At or over 8 is Satisfied, under is Not satisfied.

State whether the measured pKi reaches 8, counting equality as reaching it, for `Cc1cc(C(N)=O)cc(C)c1C[C@H](N)C(=O)N(Cc1ccc(C(=O)O)o1)[C@@H](C)c1nc(-c2ccccc2)c[nH]1` Satisfied

State whether the measured pKi reaches 8, counting equality as reaching it, for Cc1cc(O)cc(C)c1C[C@H](N)C(=O)N(Cc1nc(-c2ccccc2)c[nH]1)C(C)CN(C)C (some centres unmarked) Satisfied

State whether the measured pKi reaches 8, counting equality as reaching it, for `COc1ccc(CN(C(=O)[C@@H](N)Cc2c(C)cc(C(N)=O)cc2C)[C@@H](C)c2nc(-c3cccc(Br)c3)c[nH]2)cc1OC` Not satisfied

State whether the measured pKi reaches 8, counting equality as reaching it, for `Cc1cc(C(=O)O)cc(C)c1C[C@H](N)C(=O)N(Cc1ccc(C(=O)O)cc1)[C@@H](C)c1nc(-c2ccccc2)c[nH]1` Not satisfied

State whether the measured pKi reaches 8, counting equality as reaching it, for `COc1ccc(CN(C(=O)[C@@H](N)Cc2c(C)cc(O)cc2C)[C@@H](C)c2nc(-c3ccccc3)c[nH]2)cc1C(=O)O` Satisfied

State whether the measured pKi reaches 8, counting equality as reaching it, for `COc1ccc(CN(C(=O)[C@@H](N)Cc2c(C)cc(O)cc2C)[C@@H](C)c2nc(-c3ccccc3)c[nH]2)cc1OC` Satisfied

State whether the measured pKi reaches 8, counting equality as reaching it, for `Cc1cc(O)cc(C)c1C[C@H](N)C(=O)N(Cc1ccccc1)[C@@H](CC(C)C)c1nc(-c2ccccc2)c[nH]1` Not satisfied

State whether the measured pKi reaches 8, counting equality as reaching it, for `Cc1cc(C(N)=O)cc(C)c1C[C@H](N)C(=O)N(Cc1ccc(C(=O)O)cc1)[C@@H](C)c1nc(-c2cccc3ccccc23)c[nH]1` Satisfied

State whether the measured pKi reaches 8, counting equality as reaching it, for `Cc1cc(O)cc(C)c1C[C@H](N)C(=O)N(Cc1nc(Br)c(C)[nH]1)C(C)C` Satisfied

State whether the measured pKi reaches 8, counting equality as reaching it, for `Cc1cc(O)cc(C)c1C[C@H](N)C(=O)N(Cc1ccc(C(=O)O)cc1)[C@@H](C)c1nc(-c2ccccc2)c[nH]1` Satisfied

State whether the measured pKi reaches 8, counting equality as reaching it, for `C[C@@H](NC(=O)[C@@H](N)Cc1ccc(O)cc1)c1nc(-c2ccccc2)c[nH]1` Not satisfied

----------
Target: human delta subtype 2 opioid receptor (Homo sapiens, UniProt P41143)
Construct: purchased Perkin Elmer RBHODM400UA; host or cells: Chinese Hamster Ovary cells (recombinant expression)
Sequence (P41143 whole entry): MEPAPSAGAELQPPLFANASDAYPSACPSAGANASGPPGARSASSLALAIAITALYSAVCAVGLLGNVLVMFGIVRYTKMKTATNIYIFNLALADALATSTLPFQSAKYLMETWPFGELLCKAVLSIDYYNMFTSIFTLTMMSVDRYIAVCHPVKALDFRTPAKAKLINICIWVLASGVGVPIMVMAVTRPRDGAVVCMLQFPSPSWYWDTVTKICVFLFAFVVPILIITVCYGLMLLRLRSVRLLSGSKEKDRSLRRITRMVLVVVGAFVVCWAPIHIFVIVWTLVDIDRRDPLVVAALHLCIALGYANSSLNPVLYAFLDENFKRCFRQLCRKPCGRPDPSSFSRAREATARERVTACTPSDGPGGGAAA
Assay: Human Delta Opioid Receptor Binding Assay (CHO membranes, 3H-Naltrindole)
Conditions: read-out: hKi δ
measured quantity: pKi
Reminder that pKi is minus the log10 of a molar concentration.

Which value of pKi has been reported for `Cc1cc(O)cc(C)c1C[C@H](N)C(=O)N(Cc1nc(-c2ccccc2)c[nH]1)C(C)C` in the records? 6.99

Which value of pKi has been reported for `Cc1cc(C(N)=O)cc(C)c1C[C@H](N)C(=O)N(CCc1ccccc1)[C@@H](C)c1nc(-c2ccccc2)c[nH]1` in the records? 7.11

Which value of pKi has been reported for `Cc1cc(C(N)=O)cc(C)c1C[C@H](N)C(=O)N(Cc1nc(-c2ccccc2)c[nH]1)[C@@H](C)c1ccccc1` in the records? 6.56

Which value of pKi has been reported for `Cc1cc(C(N)=O)cc(C)c1C[C@H](N)C(=O)N(C)[C@H](C)c1nc(-c2ccccc2)c[nH]1` in the records? 6.60
